system: PRKCI; conditions: concentration: 1 μM, replicates: in singlicate; n = 1;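 also: KINOMEscan kinase panel screen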
Checkbox rule: %Inh lower than 6% = t; %Inh not lower than 6% = f.

Enquiry: # check: %Inh < 6% for O=C(Nc1n[nH]c2nc(-c3cccs3)c(Br)cc12)C1CCCC1 [SB-743341]
Return: f

Enquiry: # check: %Inh < 6% for "CN1c2ccc(-c3ccc(C(N)=O)cc3)cc2-c2[nH]ncc2S1(=O)=O"
Return: t

Enquiry: # check: %Inh < 6% for "COc1ccc(-c2coc3ccc(-c4nnc(C)o4)cc23)cc1"
Return: t

* * *

system: PIK3CB; settings: concentration: 1 μM, replicates: in singlicate; n = 1
READOUT KIND: %Inh (%)
Give the value in % but do not write % after it.

{"COMPOUND": "COC(=O)c1cccc(NC(=O)NC2CCN(c3ccnc(Nc4ccc(F)cc4)n3)C2)c1 (stereo not drawn)", "%Inh (%)": 0}

Enquiry: Please look at this compound and report its %Inh: "Cn1cncc1-c1cc2c(Nc3ccc(OCc4ccccc4)cc3)ncnc2cn1"
Return: 0

Enquiry: Please look at this compound and report its %Inh: "Cc1cnc(N)c(/C=C/c2cncc(C(=O)NCCc3ccc(Cl)cc3Cl)c2)c1.Cl"
Return: 1

Enquiry: Please look at this compound and report its %Inh: CC(=O)c1cccc(NC(=O)NC2CCN(c3ccnc(Nc4ccc(F)cc4)n3)C2)c1 (stereo not drawn)
Return: 0

Enquiry: Please look at this compound and report its %Inh: "COc1ccc(CSc2nnc(-c3ccc4nccn4c3)o2)cc1C(F)(F)F"
Return: 11

Enquiry: Please look at this compound and report its %Inh: "Nc1ncnc2occ(-c3ccc4c(c3)CCN4C(=O)Cc3cc(F)ccc3F)c12"
Return: 0

* * *

system: SIK; conditions: concentration: 1 μM, replicates: in singlicate; n = 1
Checkbox rule: %Inh lower than 3% = 1.0; %Inh not lower than 3% = 0.0.

{"MOLECULE": "CC(C)c1cc(-c2ccc3c(N)n[nH]c3c2)nc(N)n1", "ASSAYED SYSTEM": "SIK", "LABEL CLASS": 1.0}
{"MOLECULE": "Fc1ccc(-c2nc3n(c2-c2ccncc2)CCS3)cc1", "ASSAYED SYSTEM": "SIK", "LABEL CLASS": 0.0}
{"MOLECULE": "Cc1ccc(NC(=O)Nc2ccc(Cl)cc2)cc1-c1ccc(C(=O)Nc2ccncc2)cc1", "ASSAYED SYSTEM": "SIK", "LABEL CLASS": 0.0}
{"MOLECULE": "CNc1nc(-c2ccc3c(N)n[nH]c3c2)cc(N2C[C@@H](C(=O)NC3CCCCC3)OC[C@H]2C)n1", "ASSAYED SYSTEM": "SIK", "LABEL CLASS": 1.0}
{"MOLECULE": "CCn1c(-c2c(N)noc2C)nc2cnccc21", "ASSAYED SYSTEM": "SIK", "LABEL CLASS": 1.0}
{"MOLECULE": "c1ccc(-c2ccnc3[nH]ccc23)cc1", "ASSAYED SYSTEM": "SIK", "LABEL CLASS": 1.0}
{"MOLECULE": "COc1cccc(CNC(=O)NC2CCN(c3ccnc(Nc4ccc(F)cc4)n3)C2)c1 (stereo not shown)", "ASSAYED SYSTEM": "SIK", "LABEL CLASS": 1.0}
{"MOLECULE": "CCCCc1nn2ncccc2c1-c1ccnc(NC2CC2)n1", "ASSAYED SYSTEM": "SIK", "LABEL CLASS": 1.0}
{"MOLECULE": "O=c1cc(N2CCOCC2)nc2n(Cc3ccccc3F)ccn12", "ASSAYED SYSTEM": "SIK", "LABEL CLASS": 1.0}
{"MOLECULE": "CS(=O)(=O)CCNCc1nc(-c2ccc3ncnc(Nc4ccc5c(cnn5Cc5ccccc5)c4)c3c2)cs1.Cl.Cl", "ASSAYED SYSTEM": "SIK", "LABEL CLASS": 1.0}

Enquiry: # check: %Inh < 3% for "COc1cccc(NC(=O)Nc2ccc(C)c(-c3ccc(C(=O)Nc4ccncc4)cc3)c2)c1"
Return: 0.0

Enquiry: # check: %Inh < 3% for "Cc1ccc(NC(=O)Nc2ccccc2F)cc1-c1ccc(C(=O)Nc2ccncc2)cc1"
Return: 0.0

Enquiry: # check: %Inh < 3% for COC(=O)C(NC(=O)NC1CCN(c2ccnc(Nc3ccc(F)cc3)n2)C1)c1ccccc1 (stereo not shown)
Return: 1.0

Enquiry: # check: %Inh < 3% for COc1ccc(Nc2nccc(N3CCC(NC(=O)C(C)c4ccc(Cl)cc4)C3)n2)cc1 (stereo not shown)
Return: 1.0

Enquiry: # check: %Inh < 3% for "CNc1cc(-c2ccc3c(N)n[nH]c3c2)nc(N)n1"
Return: 1.0

Enquiry: # check: %Inh < 3% for COc1ccc(Nc2nccc(N3CCC(NC(=O)C(C)c4ccc(Cl)cc4)CC3)n2)cc1 (stereo not shown)
Return: 0.0

Enquiry: # check: %Inh < 3% for "CCc1ccc(-c2ccc3c(c2)-c2n[nH]cc2S(=O)(=O)N3C)cc1"
Return: 0.0
